Catalogue of pIC50 values
experimental_system: human kinase Mps-1 (Homo sapiens, UniProt P33981)
Construct: N-terminally GST-tagged human full length recombinant Mps-1 kinase; GST (N)
Sequence (P33981 whole entry): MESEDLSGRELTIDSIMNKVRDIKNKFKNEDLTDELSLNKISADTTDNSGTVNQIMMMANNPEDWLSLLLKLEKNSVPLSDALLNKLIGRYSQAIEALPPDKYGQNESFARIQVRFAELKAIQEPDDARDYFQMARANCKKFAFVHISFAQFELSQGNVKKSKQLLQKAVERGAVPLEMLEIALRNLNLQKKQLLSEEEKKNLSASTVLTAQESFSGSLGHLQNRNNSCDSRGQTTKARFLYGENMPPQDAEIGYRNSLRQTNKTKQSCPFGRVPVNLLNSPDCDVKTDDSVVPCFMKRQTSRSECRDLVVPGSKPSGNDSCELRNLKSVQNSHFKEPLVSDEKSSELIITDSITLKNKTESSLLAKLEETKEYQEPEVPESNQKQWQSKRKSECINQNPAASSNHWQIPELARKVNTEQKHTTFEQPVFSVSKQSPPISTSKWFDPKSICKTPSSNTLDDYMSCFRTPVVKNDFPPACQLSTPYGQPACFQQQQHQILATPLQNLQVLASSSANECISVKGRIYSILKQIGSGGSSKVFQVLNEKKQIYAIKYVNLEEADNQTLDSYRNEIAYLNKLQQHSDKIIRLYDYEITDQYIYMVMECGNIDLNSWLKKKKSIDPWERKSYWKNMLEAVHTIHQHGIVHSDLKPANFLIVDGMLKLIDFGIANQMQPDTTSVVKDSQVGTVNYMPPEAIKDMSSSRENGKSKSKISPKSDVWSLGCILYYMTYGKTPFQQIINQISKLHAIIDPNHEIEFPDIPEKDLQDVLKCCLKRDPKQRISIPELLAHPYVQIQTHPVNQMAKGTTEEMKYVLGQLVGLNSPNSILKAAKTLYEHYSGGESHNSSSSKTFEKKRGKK
experiment: Mps-1 kinase assay (TR-FRET)
condition_context: Mps-1 TR-FRET kinase assay; avg; read-out: Mps1 avg (IC50 [mol/l])
pIC50: −log10 of the molar value.

Solved cases below.
Cc1nsc(Nc2cncc(C(F)(F)F)n2)c1C(=O)Nc1cccc(S(C)(=O)=O)c1    < 5.00
Cc1nsc(Nc2cnc(C(F)(F)F)cn2)c1C(=O)Nc1ccc(O[C@H]2CCN(CC(F)F)C[C@@H]2F)nc1    < 4.70

Exam item: Which pIC50 reading was recorded for the molecule `Cc1nsc(Nc2ccc(C#N)cn2)c1C(=O)Nc1ccc(C(=O)OC(C)(C)C)cc1` ?
Marked response: ≤ 4.70

Exam item: Which pIC50 reading was recorded for the molecule `Cc1nsc(Nc2cnc3ccccc3n2)c1C(=O)Nc1ccc(N2CCOCC2)nc1` ?
Marked response: < 4.70

Exam item: Which pIC50 reading was recorded for the molecule Cc1nsc(Nc2cnc(C(F)(F)F)cn2)c1C(=O)Nc1ccc(OCC2CCN(C(=O)OC(C)(C)C)C2)nc1 (stereo not shown) ?
Marked response: ≤ 4.70

Exam item: Which pIC50 reading was recorded for the molecule Cc1nsc(Nc2cncc(C(F)(F)F)n2)c1C(=O)Nc1ccc(OC2CCCN(C(=O)OC(C)(C)C)C2)nc1 (stereo not shown) ?
Marked response: < 4.70

Exam item: Which pIC50 reading was recorded for the molecule `Cc1nsc(Nc2cnc(C(F)(F)F)cn2)c1C(=O)Nc1ccc(F)c(OCC2CCN(C(CF)CF)CC2)c1` ?
Marked response: ≤ 4.70

###

In what follows, each item is paired with its IC50 for catalytic domain of human Bub1 (amino acids 704-1085) (Homo sapiens).

Solved cases below.
Cc1nsc(Nc2cnc(C(F)(F)F)cn2)c1C(=O)Nc1ccc(F)c(OC[C@@H]2CCCN(CC(F)(F)F)C2)c1 [Example 342]    > 20 µM
Cc1nsc(Nc2cnc(C(F)(F)F)cn2)c1C(=O)Nc1ccc(F)c(OCCCNC(=O)C(F)(F)F)c1 [Example 427]    ≥ 20 µM
COc1ccc(NC(=O)c2c(C)nsc2Nc2ccc(C#N)cn2)c(N2CCOCC2)n1 [Example 173]    > 20 µM
Cc1nsc(Nc2cnc(C(F)(F)F)cn2)c1C(=O)Nc1ccc(F)c(OCC2CCCN(CC(F)F)C2)c1 (stereo not shown) [Example 334]    ≥ 20 µM

Exam item: catalytic domain of human Bub1 (amino acids 704-1085) (Homo sapiens) / IC50 / Cc1nsc(Nc2ccc(C#N)cn2)c1C(=O)Nc1ccc(OC2CCCN(CC(F)F)C2)nc1 (stereo not shown) [Example 39] : value?
Marked response: ≥ 20 µM

Exam item: catalytic domain of human Bub1 (amino acids 704-1085) (Homo sapiens) / IC50 / Cc1nsc(Nc2cnc(C(F)(F)F)cn2)c1C(=O)Nc1ccc(CCC2CCN(CCC(F)(F)F)CC2)nc1 [Example 420] : value?
Marked response: ≥ 20 µM

Exam item: catalytic domain of human Bub1 (amino acids 704-1085) (Homo sapiens) / IC50 / Cc1nsc(Nc2cnc(C(F)(F)F)cn2)c1C(=O)Nc1ccc(OCCNC(=O)OC(C)(C)C)c(F)c1 [Example 215] : value?
Marked response: > 20 µM

###

Test system: HeLa
experiment: Proliferation assay (crystal violet), HeLa
Assay type: cell-based
condition_context: Homo sapiens, HeLa, 96 h, HeLa cells; 4 days incubation; crystal violet staining; read-out: IC50 inhibition of proliferation, HeLa
pIC50: −log10 of the molar value.
endpoint_label: pIC50

Solved cases below.
Cc1nsc(Nc2cnc3ccccc3n2)c1C(=O)Nc1ccc(OC2CCCN(CC(F)F)C2)nc1 (stereo not shown) [Example 33]    5.62
COc1cc(NC(=O)c2cccc(NC(=O)c3c(C)nsc3Nc3cnc4ccccc4n3)c2)cc(OC)c1OC [Example 77]    5.00

1 = Cc1nsc(Nc2cncc(C(F)(F)F)n2)c1C(=O)Nc1ccc(C(=O)NC2CCN(C(=O)OC(C)(C)C)CC2)cc1 [Example 222]
2 = Cc1nsc(Nc2cnc(C(F)(F)F)cn2)c1C(=O)Nc1ccc(F)c(OCC2CCN(CC(F)F)CC2)c1 [Example 308]
Exam item: Would you kindly point out which of 1 and 2 has the smaller pIC50 figure? Answer by quoting the chosen item's label.
Marked response: 1
